Tested on: SW-620
Experiment: Tested for in vitro cell growth inhibition of SW-620 cells
Assay type: functional, cell-based
Settings: Homo sapiens
result.type: IC50 (nM)
// units = nM; emit number, no label

Bench note: what IC50 did Nc1nnc(O)c2c1c(I)cn2C1O[C@H](CO)[C@@H](O)[C@H]1O (stereo partly specified) show?
230

====

Assay: Tested for in vitro cell growth inhibition of NCI-H1437 cells
Type: functional, cell-based
Settings: Homo sapiens
result.type: IC50 (nM)
Quick note: give the figure in nM, leave out the unit.

Which value of IC50 has been reported for Nc1nnc(O)c2c1c(I)cn2C1O[C@H](CO)[C@@H](O)[C@H]1O (stereo partly specified) in the records?
130

====

System: NCI-H460
Test: Tested for in vitro cell growth inhibition of NCI-H460 cells
Assay type: functional, cell-based
Settings: Homo sapiens
result.type: IC50 (µM)
Unit µM implied. Number only.

Fill in: IC50 of Nc1nnc(O)c2c1c(I)cn2C1O[C@H](CO)[C@@H](O)[C@H]1O (some centres not stated) is ___
0.2

Nc1nncc2c1c(Br)cn2C1O[C@H](CO)[C@@H](O)[C@H]1O (some centres not stated) , same question.
11
